protocol-notes: Intrinsic clearance in mouse liver microsomes at 1 uM after 60 mins by LC-MS analysis
Format: ADME, Microsome
setup-conditions: read-out: CLH
measurement-name: microsomal CLint at 1 µM

Worked cases, microsomal CLint at 1 µM given:
| compound | measurement-name | meas-value |
| --- | --- | --- |
| CC(C)(N)CNC(=O)C[C@H]1CC[C@@]2(CC1)C[C@@]1(OO2)C2CC3CC(C2)CC1C3 | microsomal CLint at 1 µM | 12 µL/min/mg |
| c1cc([C@H]2CC[C@@]3(CC2)C[C@@]2(OO3)C3CC4CC(C3)CC2C4)ccc1OCCN1CCOCC1 | microsomal CLint at 1 µM | 28 µL/min/mg |
| CC(C)(N)CNC(=O)CC1CCC2(CC1)OOC1(OO2)C2CC3CC(C2)CC1C3 (stereo not given) | microsomal CLint at 1 µM | 14 µL/min/mg |
| CC(C)(N)CNC(=O)C[C@H]1CC[C@]2(CC1)OO[C@]1(O2)C2CC3CC(C2)CC1C3 | microsomal CLint at 1 µM | 17 µL/min/mg |

# input for lookup
Request: Can you look up the measured microsomal CLint at 1 µM of CC(C)(N)CNC(=O)CC1CCC2(CC1)COC1(OO2)C2CC3CC(C2)CC1C3 (stereo not given) for me?
Result: < 7 µL/min/mg
